Origin of values: ChEMBL document CHEMBL4118276

- system under test: NAD-dependent protein deacylase sirtuin-5, mitochondrial (Homo sapiens, UniProt Q9NXA8)
- Sequence (Q9NXA8 37-310 limits assumed): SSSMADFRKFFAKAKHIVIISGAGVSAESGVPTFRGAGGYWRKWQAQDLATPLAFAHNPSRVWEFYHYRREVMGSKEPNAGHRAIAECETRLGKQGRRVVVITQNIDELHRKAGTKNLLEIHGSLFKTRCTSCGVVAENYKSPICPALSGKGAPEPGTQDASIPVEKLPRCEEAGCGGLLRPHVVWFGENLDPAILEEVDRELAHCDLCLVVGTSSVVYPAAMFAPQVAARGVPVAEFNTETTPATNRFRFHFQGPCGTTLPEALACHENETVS
- protocol description: Inhibition of human SIRT5 expressed in Escherichia coli BL21 at 333 uM using H3K9AcWW as substrate preincubated for 15 mins followed by substrate addition measured after 1 hr by HPLC analysis relative to control
The source made the active and inactive calls. The rule behind the calls is not given here.
readout: inhibition

Worked cases, answers included:
> print(dat)
                               given.smiles    result
1  O=C(O)CNC(=O)CCCSC[C@H](NC(=O)OCc1ccccc1)C(=O)Nc1ccccc1  inactive
2  O=C(O)CCNC(=O)CCCSC[C@H](NC(=O)OCc1ccccc1)C(=O)Nc1ccccc1  inactive
3  CCCCCCCCNC(=O)CCCSC[C@H](NC(=O)OCc1ccccc1)C(=O)Nc1ccccc1       14%
4  CCCCCCNC(=O)CCCSC[C@H](NC(=O)OCc1ccccc1)C(=O)Nc1ccccc1  inactive
5  CNC(=O)CCCSC[C@H](NC(=O)OCc1ccccc1)C(=O)Nc1ccccc1  inactive

// query inhibition value for entry O=C(O)CCCNC(=O)CCCSC[C@H](NC(=O)OCc1ccccc1)C(=O)Nc1ccccc1
inactive

Please report the recorded inhibition for CCCCNC(=O)CCCSC[C@H](NC(=O)OCc1ccccc1)C(=O)Nc1ccccc1 .
inactive

For the compound CCCCCCCCCCNC(=O)CCCSC[C@H](NC(=O)OCc1ccccc1)C(=O)Nc1ccccc1 , what inhibition is on record?
24%

Returns the measured inhibition for the input compound. Input: NC(=O)CCCSC[C@H](NC(=O)OCc1ccccc1)C(=O)Nc1ccccc1
inactive

What does the record list as inhibition for CCCCCCCCCCCCCNC(=O)CCCSC[C@H](NC(=O)OCc1ccccc1)C(=O)Nc1ccccc1 ?
inactive

Name the recorded inhibition for CCNC(=O)CCCSC[C@H](NC(=O)OCc1ccccc1)C(=O)Nc1ccccc1 .
inactive

What value of measured inhibition is listed for O=C(CCCSC[C@H](NC(=O)OCc1ccccc1)C(=O)Nc1ccccc1)NCc1ccc([N+](=O)[O-])cc1 ?
inactive

So what does the record say about inhibition for O=C(CCCSC[C@H](NC(=O)OCc1ccccc1)C(=O)Nc1ccccc1)NCc1ccccc1 ?
34%
